Values from patent US8183235B2

Molecular target: 20S proteasome trypsin-like activity (Homo sapiens)
Experiment: Trypsin-like activity inhibition test
Type: biochemical
Conditions: read-out: % Control, Trypsin-like Activity
Measured remaining activity at 10 µM accompanies every entry in the list below.
Field: numeric (%). Do not append units.

These solved cases illustrate the format of a correct answer.
# Smiles Code, Observed Result
data = [
    ("c1ccc(C2=C(c3ccc(OCCN4CCCCC4)cc3)c3ccc(OCCN4CCCCC4)cc3CC2)cc1", 196),
    ("c1ccc(C2=C(c3ccc(OCCN4CCCCCC4)cc3)c3ccc(OCCN4CCCCCC4)cc3CC2)cc1", 251),
    ("CCN(CC)CCOc1ccc(C2=C(c3ccccc3)CCc3cc(OCCN(CC)CC)ccc32)cc1", 162),
    ("c1ccc(C2=C(c3ccc(OCCN4CCCC4)cc3)c3ccc(OCCN4CCCC4)cc3CC2)cc1", 35.3),
]

Kindly consider the entry below.
Recorded result, c1ccc(C2=C(c3ccc(OCCN4CCOCC4)cc3)c3ccc(OCCN4CCOCC4)cc3CC2)cc1 , remaining activity at 10 µM: 21.6

---

System: KM-12
Experiment: Proliferation inhibition of colon cancer cells
Type: cell-based
Conditions: Homo sapiens, KM12
Structures can show the parent of a compound that is named as a salt.
Measure Name: log10 of GI50 (log10 of the value in nM)
Scale: decimal log of GI50, GI50 in nM.

These solved cases illustrate the format of a correct answer.
# Compound, Observed Result
records = [
    ("CN(C)CCOc1ccc(C2=C(c3ccccc3)CCc3cc(OCCN(C)C)ccc32)cc1", 3.27),
    ("c1ccc(C2=C(c3ccc(OCCN4CCCCCC4)cc3)c3ccc(OCCN4CCCCCC4)cc3CC2)cc1", 3.20),
    ("CCN(CC)CCOc1ccc(C2=C(c3ccccc3)CCc3cc(OCCN(CC)CC)ccc32)cc1", 3.29),
    ("c1ccc(C2=C(c3ccc(OCCN4CCOCC4)cc3)c3ccc(OCCN4CCOCC4)cc3CC2)cc1", 4.30),
    ("CN(C)CCCOc1ccc(C2=C(c3ccccc3)CCc3cc(OCCCN(C)C)ccc32)cc1", 3.22),
    ("c1ccc(C2=C(c3ccc(OCCN4CCCC4)cc3)c3ccc(OCCN4CCCC4)cc3CC2)cc1", 3.29),
    ("CC/C(=C(\\c1ccccc1)c1ccc(OCCN(C)C)cc1)c1ccccc1 [TAM, tamoxifen citrate, reference compound]", 3.55),
]

Kindly consider the entry below.
Log: KM-12, compound c1ccc(C2=C(c3ccc(OCCN4CCCCC4)cc3)c3ccc(OCCN4CCCCC4)cc3CC2)cc1 , log10 of GI50 = 3.26

---

Measured GI50 accompanies every entry in the list below.
System: OVCAR-4
Test: Proliferation inhibition of ovarian cancer cells
Assay type: cell-based
Settings: Homo sapiens
Structures can show the parent of a compound that is named as a salt.
Field: numeric (nM). Do not append units.

Recorded result, c1ccc(C2=C(c3ccc(OCCN4CCCCCC4)cc3)c3ccc(OCCN4CCCCCC4)cc3CC2)cc1 , GI50: 1780

Recorded result, c1ccc(C2=C(c3ccc(OCCN4CCCC4)cc3)c3ccc(OCCN4CCCC4)cc3CC2)cc1 , GI50: 1320

Recorded result, c1ccc(C2=C(c3ccc(OCCN4CCCCC4)cc3)c3ccc(OCCN4CCCCC4)cc3CC2)cc1 , GI50: 2090

Recorded result, CN(C)CCOc1ccc(C2=C(c3ccccc3)CCc3cc(OCCN(C)C)ccc32)cc1 , GI50: 2140

Recorded result, CCN(CC)CCOc1ccc(C2=C(c3ccccc3)CCc3cc(OCCN(CC)CC)ccc32)cc1 , GI50: 2190

Recorded result, CN(C)CCCOc1ccc(C2=C(c3ccccc3)CCc3cc(OCCCN(C)C)ccc32)cc1 , GI50: 1780

Recorded result, CC/C(=C(\c1ccccc1)c1ccc(OCCN(C)C)cc1)c1ccccc1 [TAM, tamoxifen citrate, reference compound] , GI50: 6030

Recorded result, c1ccc(C2=C(c3ccc(OCCN4CCOCC4)cc3)c3ccc(OCCN4CCOCC4)cc3CC2)cc1 , GI50: 18600
